# TARGET OF ASSAY: HIPK4 (human) (UniProt Q8NE63)
# Sequence (Q8NE63 whole entry, looked up): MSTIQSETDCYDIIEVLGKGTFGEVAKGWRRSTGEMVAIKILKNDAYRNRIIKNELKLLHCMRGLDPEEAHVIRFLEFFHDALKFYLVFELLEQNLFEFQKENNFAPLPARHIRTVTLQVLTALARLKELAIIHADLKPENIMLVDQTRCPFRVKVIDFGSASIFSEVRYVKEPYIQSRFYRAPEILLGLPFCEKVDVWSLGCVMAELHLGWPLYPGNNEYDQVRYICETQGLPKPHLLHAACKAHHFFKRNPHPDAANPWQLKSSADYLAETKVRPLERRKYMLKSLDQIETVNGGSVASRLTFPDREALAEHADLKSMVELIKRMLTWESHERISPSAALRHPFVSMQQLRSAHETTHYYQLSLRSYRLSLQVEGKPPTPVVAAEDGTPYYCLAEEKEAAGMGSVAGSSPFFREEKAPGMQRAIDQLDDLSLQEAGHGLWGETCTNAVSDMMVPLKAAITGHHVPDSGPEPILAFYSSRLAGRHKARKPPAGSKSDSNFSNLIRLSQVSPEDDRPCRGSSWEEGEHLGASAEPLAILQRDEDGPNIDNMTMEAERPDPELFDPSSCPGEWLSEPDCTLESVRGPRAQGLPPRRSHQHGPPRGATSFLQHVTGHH
# TEST NAME: Caliper, Mobility shift assay off-chip
# TEST SETTINGS: compound 0.2 µM
The entries below are paired with their reported inhibition.

SMILES CODE	inhibition
COc1cc2c(Oc3ccc4[nH]c(C)cc4c3F)ncnc2cc1OCCCN1CCCC1	-6.5%
CCN(CC)CCNC(=O)c1c(C)[nH]c(/C=C2\C(=O)Nc3ccc(F)cc32)c1C	67.4%
CNC(=O)c1cc(Oc2ccc(NC(=O)Nc3ccc(Cl)c(C(F)(F)F)c3)cc2)ccn1	98.4%
Cc1ccc(Nc2nccc(N(C)c3ccc4c(C)n(C)nc4c3)n2)cc1S(N)(=O)=O	12.3%

----------
# TARGET OF ASSAY: NEK4 (human) (UniProt P51957)
# Sequence (P51957 whole entry, looked up): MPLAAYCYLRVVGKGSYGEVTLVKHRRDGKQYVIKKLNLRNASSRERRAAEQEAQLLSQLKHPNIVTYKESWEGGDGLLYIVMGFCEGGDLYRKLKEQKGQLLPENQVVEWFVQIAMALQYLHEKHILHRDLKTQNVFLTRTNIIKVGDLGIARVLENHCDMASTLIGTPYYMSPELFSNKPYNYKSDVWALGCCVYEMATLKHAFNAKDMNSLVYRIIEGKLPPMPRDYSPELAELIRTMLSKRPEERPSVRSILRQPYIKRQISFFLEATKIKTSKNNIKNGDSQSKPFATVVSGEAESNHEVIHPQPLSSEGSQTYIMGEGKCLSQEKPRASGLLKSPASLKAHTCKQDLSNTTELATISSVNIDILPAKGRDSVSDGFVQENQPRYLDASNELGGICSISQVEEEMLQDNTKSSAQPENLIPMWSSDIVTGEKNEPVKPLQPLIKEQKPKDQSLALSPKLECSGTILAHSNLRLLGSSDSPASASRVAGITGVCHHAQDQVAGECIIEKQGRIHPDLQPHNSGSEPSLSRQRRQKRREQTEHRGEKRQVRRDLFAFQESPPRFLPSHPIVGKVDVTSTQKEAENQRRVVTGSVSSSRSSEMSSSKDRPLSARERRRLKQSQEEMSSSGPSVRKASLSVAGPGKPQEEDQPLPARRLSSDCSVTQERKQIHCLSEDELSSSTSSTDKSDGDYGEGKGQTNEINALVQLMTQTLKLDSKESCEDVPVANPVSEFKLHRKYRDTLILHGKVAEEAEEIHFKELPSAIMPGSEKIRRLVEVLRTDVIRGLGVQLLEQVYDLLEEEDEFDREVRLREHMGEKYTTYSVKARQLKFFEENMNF
# TEST NAME: Caliper, Mobility shift assay off-chip
# TEST SETTINGS: compound 0.02 µM

SMILES CODE	READING UNIT	inhibition
Cc1ccc(Nc2nccc(N(C)c3ccc4c(C)n(C)nc4c3)n2)cc1S(N)(=O)=O	%	-3.5
CNC(=O)c1ccccc1Sc1ccc2c(/C=C/c3ccccn3)n[nH]c2c1	%	-4.4
COc1cc2c(Oc3ccc4[nH]c(C)cc4c3F)ncnc2cc1OCCCN1CCCC1	%	-3.8
CNC(=O)c1cc(Oc2ccc(NC(=O)Nc3ccc(Cl)c(C(F)(F)F)c3)cc2)ccn1	%	-3

----------
The entries below are paired with their reported inhibition.
# TARGET OF ASSAY: EPHA2 (human)
# TEST NAME: Caliper, Mobility shift assay off-chip
# TEST SETTINGS: compound 0.02 µM
READOUT TYPE: inhibition (%)

SMILES CODE	READING
CNC(=O)c1ccccc1Sc1ccc2c(/C=C/c3ccccn3)n[nH]c2c1	-6.2
CNC(=O)c1cc(Oc2ccc(NC(=O)Nc3ccc(Cl)c(C(F)(F)F)c3)cc2)ccn1	-2.7
COc1cc2c(Oc3ccc4[nH]c(C)cc4c3F)ncnc2cc1OCCCN1CCCC1	-5.4
Cc1ccc(Nc2nccc(N(C)c3ccc4c(C)n(C)nc4c3)n2)cc1S(N)(=O)=O	-5

----------
# TARGET OF ASSAY: PRKCD (human) (UniProt Q05655)
# Sequence (Q05655 whole entry, looked up): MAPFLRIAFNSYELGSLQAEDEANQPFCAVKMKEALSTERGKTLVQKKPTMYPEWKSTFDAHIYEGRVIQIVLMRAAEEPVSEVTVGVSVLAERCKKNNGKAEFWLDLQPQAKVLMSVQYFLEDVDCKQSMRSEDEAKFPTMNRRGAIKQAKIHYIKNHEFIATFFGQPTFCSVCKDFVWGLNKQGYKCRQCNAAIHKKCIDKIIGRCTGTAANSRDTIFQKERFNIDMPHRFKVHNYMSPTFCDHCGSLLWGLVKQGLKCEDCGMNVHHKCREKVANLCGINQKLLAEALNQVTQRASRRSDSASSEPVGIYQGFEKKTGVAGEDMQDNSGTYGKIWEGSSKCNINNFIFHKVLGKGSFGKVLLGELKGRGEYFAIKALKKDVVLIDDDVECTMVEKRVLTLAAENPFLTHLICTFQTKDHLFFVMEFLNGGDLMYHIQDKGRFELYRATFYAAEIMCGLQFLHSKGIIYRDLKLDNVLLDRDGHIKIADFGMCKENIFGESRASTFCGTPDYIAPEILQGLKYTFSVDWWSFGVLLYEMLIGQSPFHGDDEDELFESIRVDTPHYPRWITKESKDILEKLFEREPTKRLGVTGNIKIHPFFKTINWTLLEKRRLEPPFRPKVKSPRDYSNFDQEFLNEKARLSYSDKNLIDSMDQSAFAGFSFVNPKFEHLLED
# TEST NAME: Caliper, Mobility shift assay off-chip
# TEST SETTINGS: compound 0.02 µM
READOUT TYPE: inhibition

SMILES CODE	READING
CNC(=O)c1cc(Oc2ccc(NC(=O)Nc3ccc(Cl)c(C(F)(F)F)c3)cc2)ccn1	-1.7%
Cc1ccc(Nc2nccc(N(C)c3ccc4c(C)n(C)nc4c3)n2)cc1S(N)(=O)=O	-1.6%
COc1cc2c(Oc3ccc4[nH]c(C)cc4c3F)ncnc2cc1OCCCN1CCCC1	11.1%
CNC(=O)c1ccccc1Sc1ccc2c(/C=C/c3ccccn3)n[nH]c2c1	-0.9%

----------
# TARGET OF ASSAY: AKT3 (human)
# TEST NAME: Caliper, Mobility shift assay off-chip
# TEST SETTINGS: compound 0.2 µM
The entries below are paired with their reported inhibition.

SMILES CODE	READING UNIT	inhibition
Cc1ccc(Nc2nccc(N(C)c3ccc4c(C)n(C)nc4c3)n2)cc1S(N)(=O)=O	%	-2.6
CNC(=O)c1cc(Oc2ccc(NC(=O)Nc3ccc(Cl)c(C(F)(F)F)c3)cc2)ccn1	%	-1.1
CCN(CC)CCNC(=O)c1c(C)[nH]c(/C=C2\C(=O)Nc3ccc(F)cc32)c1C	%	2.3
COc1cc2c(Oc3ccc4[nH]c(C)cc4c3F)ncnc2cc1OCCCN1CCCC1	%	-4.2
